Can you tell me CC50 for the items I'm about to list?
tested on: MT4; experiment: Cytotoxicity against human MT4 cells after 7 days by MTT assay; format: cell-based; conditions: mt4, 168 h

{"columns": ["smiles-notation", "CC50"],
 "data": [
  ["COc1ccc(S(=O)(=O)N(CC(C)C)C[C@@H](O)[C@H](Cc2ccccc2)NC(=O)c2ccc3c(c2)[C@@H](NC(=O)OC(C)(C)C)CC[C@@H]3O)cc1", "33.3 µM"]
]}

Now for the compound whose CC50 we want.
## Task # lookup: CC50 of "COc1ccc(S(=O)(=O)N(CC(C)C)C[C@@H](O)[C@H](Cc2ccccc2)NC(=O)c2ccc3c(c2)[C@@H](N)CC[C@@H]3O)cc1"
## Result 35.1 µM
